Test system: Plasmodium berghei
assay.overview: Screen against P. berghei liver stage (PbLuc), transformed with Luciferase, at 10uM
Assay type: functional, HepG2
assay.conditions: tested at 10 uM
In all, about 69,000 compounds went through this assay and about 8,600 (12%) showed an effect of 50% or more. What follows is part of a selection rich in strong results, with near analogues and random picks from the rest.
quantity.measured: INHIBITION (%)
Numbers only here, please. The scale is %.

Examples with answers:
molecule	test.system	INHIBITION / %
Clc1cccc(OCCCN2CCOC(Cn3cncn3)C2)c1 (configuration not stated)	Plasmodium berghei	14.1
Clc1ccc(OCCCN2CCOC(Cn3cncn3)C2)cc1 (configuration not stated)	Plasmodium berghei	66.2
c1ccc(-c2nc(CN3CCOC(Cn4cncn4)C3)cs2)cc1 (configuration not stated)	Plasmodium berghei	18.2
CCNC(c1ccc(C(C)C)cc1)c1cccnc1 (configuration not stated)	Plasmodium berghei	8.64
c1csc(-c2nc(CN3CCOC(Cn4cncn4)C3)cs2)c1 (configuration not stated)	Plasmodium berghei	40.9
CC(C)(C)c1nc(CN2CCOC(Cn3cncn3)C2)cs1 (configuration not stated)	Plasmodium berghei	44.3

Qu. So what does the record say about INHIBITION for Cc1cnn(CC2CN(Cc3csc(C4CCCC4)n3)CCO2)c1 (configuration not stated) ?
Ans. -6.44

Qu. So what does the record say about INHIBITION for `CCN1CCN(C(=O)c2cccc(CN3CCOCC3)c2)CC1` ?
Ans. -14.8

###

Tested on: Plasmodium berghei
assay.overview: Screen against P. berghei liver stage (PbLuc), transformed with Luciferase, at 10uM
Format: functional, HepG2
assay.conditions: tested at 10 uM
The whole screen tested about 69,000 compounds, of which about 8,600 (12%) showed an effect of 50% or more. The sample as a whole holds a higher share of strong results than the screen did.
quantity.measured: INHIBITION (%)
Numbers only here, please. The scale is %.

Examples with answers:
compound	test.system	recorded.measurement
CC(C)N1C[C@@H]2CN(C(=O)NCc3ccccc3)CCC[C@]2(C(=O)O)C1	Plasmodium berghei	34.6
CCS(=O)(=O)CC(=O)Nc1ccccc1N1CCc2ccccc21	Plasmodium berghei	63.3

Now for the compound whose INHIBITION we want.
Qu. So what does the record say about INHIBITION for CCN(Cc1ccccn1)C1CCN(c2ccccc2)C1=O (configuration not stated) ?
Ans. -31.1

###

Reported values of INHIBITION for individual entries
Tested on: Plasmodium berghei
assay.overview: Screen against P. berghei liver stage (PbLuc), transformed with Luciferase, at 10uM
Assay type: functional, HepG2
assay.conditions: tested at 10 uM
Out of some 69,000 compounds screened, about 8,600 (12%) showed an effect of 50% or more. Shown is part of a subset that was picked to be rich in strong results.

compound	INHIBITION
OCC1(CC2CCCCO2)CCN(c2cnc3ccccc3n2)CC1 (stereo not drawn)	83.9%

Qu. For Plasmodium berghei, provide INHIBITION of Cc1cc(N2CCC3(CC2)C(C(=O)O)CC(=O)N3C)nc2ccccc12 (stereo not drawn) please.
Ans. 9.56%

Qu. For Plasmodium berghei, provide INHIBITION of `Cc1cn2c(=O)c(-c3ccnc(N[C@@H]4CCOC4)n3)cnc2s1` please.
Ans. 17.4%

Qu. For Plasmodium berghei, provide INHIBITION of `COCCN1C[C@@H](C)[C@@]2(COCCN(C(=O)c3cnc(C)cn3)C2)C1` please.
Ans. 8.57%

Qu. For Plasmodium berghei, provide INHIBITION of Cc1cc(N2CCC3(CCCN(CCO)C3=O)C2)nc2ccccc12 (stereo not drawn) please.
Ans. 57.2%

Qu. For Plasmodium berghei, provide INHIBITION of `Cc1cc(-c2cc(-c3cc(CC(=O)O)cs3)nc(N)c2C#N)oc1C` please.
Ans. 33.9%

Qu. For Plasmodium berghei, provide INHIBITION of `O=C(O)Cc1cccc(-n2ccnc2-c2ccc(Cl)s2)c1` please.
Ans. 53.3%
